// provenance: patent US5179217A

What K values was measured for each of the following?
Tested on: DNA
procedure-details: Binding parameters of the complexes between 6-alkylangelicins and DNA (in the dark)
Set-up: unit not given here
assay-setup: complex with DNA

INSERT INTO measurements (smiles_str, metric_name, observed) VALUES
  ('Cc1cc2ccc(=O)oc2c2c(C)coc12', 'K values', '6,300 ± 541'),
  ('Cc1cc(=O)oc2c1cc(C)c1occc12', 'K values', '2,990 ± 232'),
  ('Cc1cc2ccc(=O)oc2c2ccoc12', 'K values', '925 ± 64'),
  ('Cc1cc2c(o1)c(C)c(C)c1ccc(=O)oc12', 'K values', '3,730 ± 339'),
  ('Cc1cc2c(o1)c(C)cc1ccc(=O)oc12', 'K values', '1,975 ± 136'),
  ('O=c1ccc2ccc3occc3c2o1', 'K values', 560),
  ('Cc1cc2c(o1)c(C)cc1c(C)cc(=O)oc12', 'K values', '3,310 ± 281');

Now examine the next entry.
Reported K values for Cc1cc(=O)oc2c1cc(C)c1occ(C)c12 : what is it?
10,100 ± 1190
